assayed_system: UniProt:P11362
Sequence (P11362 22-822): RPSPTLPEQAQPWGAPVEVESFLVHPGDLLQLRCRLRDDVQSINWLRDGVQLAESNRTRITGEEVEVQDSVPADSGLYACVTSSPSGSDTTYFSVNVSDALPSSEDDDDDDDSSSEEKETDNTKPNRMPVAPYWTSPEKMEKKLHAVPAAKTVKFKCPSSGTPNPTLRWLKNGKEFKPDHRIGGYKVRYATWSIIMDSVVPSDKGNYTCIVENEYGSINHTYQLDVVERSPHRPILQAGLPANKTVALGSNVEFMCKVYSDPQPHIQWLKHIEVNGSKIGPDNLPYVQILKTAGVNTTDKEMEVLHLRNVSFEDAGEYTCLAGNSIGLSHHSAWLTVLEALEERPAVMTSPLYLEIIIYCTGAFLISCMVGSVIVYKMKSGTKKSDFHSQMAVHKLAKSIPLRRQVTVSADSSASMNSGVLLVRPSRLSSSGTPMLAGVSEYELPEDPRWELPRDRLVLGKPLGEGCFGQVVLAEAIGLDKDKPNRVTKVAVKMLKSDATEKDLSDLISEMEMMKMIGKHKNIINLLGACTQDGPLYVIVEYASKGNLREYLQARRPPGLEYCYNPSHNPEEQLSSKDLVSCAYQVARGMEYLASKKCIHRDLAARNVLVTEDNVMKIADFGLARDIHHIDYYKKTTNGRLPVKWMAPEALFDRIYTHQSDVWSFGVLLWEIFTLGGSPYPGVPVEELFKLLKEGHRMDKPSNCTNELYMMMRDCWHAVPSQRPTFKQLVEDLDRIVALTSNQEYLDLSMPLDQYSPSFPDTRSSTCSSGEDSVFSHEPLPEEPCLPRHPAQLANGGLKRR
method_summary: FGFR Enzymatic Assay (FRET peptide phosphorylation), FGFR1
assay_setup: IC50 ratio, pre-incubated for 5 to 10 minutes
measured_metric: FGFR1/FGFR4

Tell us which FGFR1/FGFR4 value is on record for C=CC(=O)Nc1cccc(C)c1Nc1cc2c(cn1)CN(c1c(F)c(OC)cc(OC)c1F)C(=O)C21CC1 >10

Supply reported FGFR1/FGFR4 belonging to this molecule: C=CC(=O)N(C)c1cc2c(cn1)CN(c1c(F)c(OC)cc(OC)c1F)C(=O)C21CC1 >5

Identify measured FGFR1/FGFR4 corresponding to C=CC(=O)Nc1ccccc1Nc1cc2c(cn1)CN(c1c(F)c(OC)cc(OC)c1F)C(=O)C2(C)C >10

More entries:
State, in one line, measured FGFR1/FGFR4 of C=CC(=O)Nc1ccccc1Nc1cc2c(cn1)CN(c1c(F)c(OC)cc(OC)c1F)C(=O)C21CCOCC1 >10

Consider the molecule C=CC(=O)NC1COCC1Nc1cc2c(cn1)CN(c1c(F)c(OC)cc(OC)c1F)C(=O)C21CC1 (racemic) . State its measured FGFR1/FGFR4. >10

Let me know recorded FGFR1/FGFR4 for C=CC(=O)N[C@H]1CCC[C@H]1Oc1ncc2c(n1)C1(CC1)C(=O)N(c1c(F)c(OC)cc(OC)c1F)C2 , thanks. >10

Entry C=CC(=O)NC1CCCCC1Nc1cc2c(cn1)CN(c1c(F)c(OC)cc(OC)c1F)C(=O)C21CC1 (racemic) needs its FGFR1/FGFR4 filled in; supply it. >5

* * *

assayed_system: FGFR3 (Homo sapiens (Human))
Sequence (P22607 23-806): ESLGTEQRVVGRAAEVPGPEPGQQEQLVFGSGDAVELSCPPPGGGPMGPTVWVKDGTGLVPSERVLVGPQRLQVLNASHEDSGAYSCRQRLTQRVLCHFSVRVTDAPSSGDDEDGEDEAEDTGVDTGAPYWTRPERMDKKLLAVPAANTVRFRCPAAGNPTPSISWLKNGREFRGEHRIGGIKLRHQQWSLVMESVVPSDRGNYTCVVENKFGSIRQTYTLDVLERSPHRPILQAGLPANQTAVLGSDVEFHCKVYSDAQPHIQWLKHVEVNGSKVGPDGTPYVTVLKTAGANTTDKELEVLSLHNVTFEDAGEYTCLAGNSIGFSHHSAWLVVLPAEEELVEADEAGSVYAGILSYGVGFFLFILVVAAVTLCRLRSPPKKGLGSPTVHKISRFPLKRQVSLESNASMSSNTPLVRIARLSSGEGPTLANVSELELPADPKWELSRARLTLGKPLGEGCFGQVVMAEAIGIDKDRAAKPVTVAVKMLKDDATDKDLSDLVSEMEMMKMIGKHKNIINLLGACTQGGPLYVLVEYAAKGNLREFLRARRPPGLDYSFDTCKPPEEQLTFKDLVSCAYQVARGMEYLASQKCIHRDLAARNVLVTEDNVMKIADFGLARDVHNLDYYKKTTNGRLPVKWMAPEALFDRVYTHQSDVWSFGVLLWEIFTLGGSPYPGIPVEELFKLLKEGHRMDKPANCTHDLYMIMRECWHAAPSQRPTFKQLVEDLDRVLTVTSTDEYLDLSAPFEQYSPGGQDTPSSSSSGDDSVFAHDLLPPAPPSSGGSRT
method_summary: FGFR Enzymatic Assay (FRET peptide phosphorylation), FGFR3
assay_setup: read-out: FGFR3 IC50; pre-incubated for 5 to 10 minutes
pIC50: −log10 of the molar value.
measured_metric: pIC50

Please report the measured pIC50 for C=CC(=O)Nc1ccccc1Nc1cc2c(cn1)CN(c1c(F)c(OC)cc(OC)c1F)C(=O)C21CC1 tested on FGFR3 (Homo sapiens (Human)). 6.70 to 7.52

Send back FGFR3 (Homo sapiens (Human)) pIC50 of C=CC(=O)Nc1ccccc1Nc1cc2c(cn1)CN(c1c(F)c(OC)cc(OC)c1F)C(=O)C2(C)C only. < 6.70

Report the value of pIC50 obtained on FGFR3 (Homo sapiens (Human)) for C=CC(=O)Nc1cccc(C)c1Nc1cc2c(cn1)CN(c1c(F)c(OC)cc(OC)c1F)C(=O)C21CC1 . < 6.70

Consider the compound C=CC(=O)NC1COCC1Nc1cc2c(cn1)CN(c1c(F)c(OC)cc(OC)c1F)C(=O)C21CC1 (racemic) tested on FGFR3 (Homo sapiens (Human)); state its pIC50. < 6.70

Here is another compound to look at.
# assay system FGFR3 (Homo sapiens (Human)): give pIC50 of C=CC(=O)Nc1ccc(N2CCOCC2)cc1Nc1cc2c(cn1)CN(c1c(F)c(OC)cc(OC)c1F)C(=O)C21CC1 6.70 to 7.52

* * *

assayed_system: FGFR4 (Homo sapiens (Human), UniProt P22455)
Sequence (P22455 22-802): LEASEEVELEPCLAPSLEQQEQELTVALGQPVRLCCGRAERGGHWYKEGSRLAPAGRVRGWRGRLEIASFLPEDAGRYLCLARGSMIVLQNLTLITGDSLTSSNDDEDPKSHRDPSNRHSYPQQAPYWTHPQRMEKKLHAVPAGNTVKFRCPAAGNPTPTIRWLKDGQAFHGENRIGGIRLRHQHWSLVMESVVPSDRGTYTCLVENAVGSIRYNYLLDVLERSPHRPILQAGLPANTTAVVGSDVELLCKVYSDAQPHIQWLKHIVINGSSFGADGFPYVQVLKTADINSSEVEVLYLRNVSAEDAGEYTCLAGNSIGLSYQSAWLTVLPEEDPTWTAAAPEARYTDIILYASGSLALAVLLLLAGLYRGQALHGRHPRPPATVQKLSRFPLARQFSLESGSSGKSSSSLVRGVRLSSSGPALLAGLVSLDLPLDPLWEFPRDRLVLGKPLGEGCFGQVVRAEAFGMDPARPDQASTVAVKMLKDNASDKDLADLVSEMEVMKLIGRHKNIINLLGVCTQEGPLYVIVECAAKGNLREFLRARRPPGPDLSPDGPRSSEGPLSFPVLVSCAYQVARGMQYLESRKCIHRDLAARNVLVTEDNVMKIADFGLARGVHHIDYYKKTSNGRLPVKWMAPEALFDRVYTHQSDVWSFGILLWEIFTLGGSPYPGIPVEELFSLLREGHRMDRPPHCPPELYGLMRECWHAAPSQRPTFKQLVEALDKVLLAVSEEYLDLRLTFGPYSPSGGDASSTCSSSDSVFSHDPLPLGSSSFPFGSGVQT
method_summary: FGFR Enzymatic Assay (FRET peptide phosphorylation), FGFR4
assay_setup: FGFR4 IC50 (nM), pre-incubated for 4 hours
compounds and their reported IC50

These solved cases illustrate the format of a correct answer.
Give me measured IC50, please, for this compound: C=CC(=O)NC1COCC1Nc1cc2c(cn1)CN(c1c(F)c(OC)cc(OC)c1F)C(=O)C21CC1 (racemic) [Example 4] < 10 nM

Item C=CC(=O)NC1CCCCC1Nc1cc2c(cn1)CN(c1c(F)c(OC)cc(OC)c1F)C(=O)C21CC1 (racemic) [Example 3] : provide IC50 < 10 nM

Continuing:
Answer with the recorded IC50 for the compound listed here: C=CC(=O)N[C@H]1CCC[C@H]1Oc1ncc2c(n1)C1(CC1)C(=O)N(c1c(F)c(OC)cc(OC)c1F)C2 [Example 12] 10 to 30 nM
